biological target: apical domain of CD71 (Screen 3: 'cynomolgus apical domain of human CD71') (cynomolgus (as paragraph 454 words it; ambiguous)); assay: primary ELISA
METRIC: RLU (RLU)
Numbers only, in RLU.

| BINDER | METRIC | MEASURED |
| --- | --- | --- |
| CD71-binding FN3 domain SEQ ID NO: 294 (designed binder) MSLPAPKNLVVSRVTEDSARLSWTAPDAAFDSFFIGYLEPQPLGEAIHLFVPGSERSYDLTGLKPGTEYNVTIQGVKGGFPSEPLIASFTT | RLU | 7.4e+06 |
| CD71-binding FN3 domain SEQ ID NO: 254 (designed binder) MSLPAPKNLVVSRVTEDSARLSWTAPDAAFDSFEIGYFENLYLGEAIVLWVPGSERSYDLTGLKPGTEYWVQIGGVKGGNWSAPLSAIFTT | RLU | 5.11e+06 |
| CD71-binding FN3 domain SEQ ID NO: 253 (designed binder) MSLPAPKNLVVSRVTEDSARLSWTAPDAAFDSFDINYWENESGGEAIALFVPGSERSYDLTGLKPGTEYWVSIGGVKGGRFSEPLYARFTT | RLU | 5.78e+06 |

For the next question, use this binder.
The binder CD71-binding FN3 domain SEQ ID NO: 326 (designed binder) MSLPAPKNLVVSRVTEDSARLSWTAPDAAFDSFEIGYWENAYKGEAIVLTVPGSERSYDLTGLKPGTEYWVQIGGVKGGVWSTPLSAIFTT showed RLU equal to 4.07e+06
